Catalogue of binders with associated NanoBRET Abs IC50
Target: T1, B-cat-Halo (beta-catenin HaloTag NanoBRET construct expressed in HEK293 cells) (UniProt P35222 1-781)
T1 sequence (looked up): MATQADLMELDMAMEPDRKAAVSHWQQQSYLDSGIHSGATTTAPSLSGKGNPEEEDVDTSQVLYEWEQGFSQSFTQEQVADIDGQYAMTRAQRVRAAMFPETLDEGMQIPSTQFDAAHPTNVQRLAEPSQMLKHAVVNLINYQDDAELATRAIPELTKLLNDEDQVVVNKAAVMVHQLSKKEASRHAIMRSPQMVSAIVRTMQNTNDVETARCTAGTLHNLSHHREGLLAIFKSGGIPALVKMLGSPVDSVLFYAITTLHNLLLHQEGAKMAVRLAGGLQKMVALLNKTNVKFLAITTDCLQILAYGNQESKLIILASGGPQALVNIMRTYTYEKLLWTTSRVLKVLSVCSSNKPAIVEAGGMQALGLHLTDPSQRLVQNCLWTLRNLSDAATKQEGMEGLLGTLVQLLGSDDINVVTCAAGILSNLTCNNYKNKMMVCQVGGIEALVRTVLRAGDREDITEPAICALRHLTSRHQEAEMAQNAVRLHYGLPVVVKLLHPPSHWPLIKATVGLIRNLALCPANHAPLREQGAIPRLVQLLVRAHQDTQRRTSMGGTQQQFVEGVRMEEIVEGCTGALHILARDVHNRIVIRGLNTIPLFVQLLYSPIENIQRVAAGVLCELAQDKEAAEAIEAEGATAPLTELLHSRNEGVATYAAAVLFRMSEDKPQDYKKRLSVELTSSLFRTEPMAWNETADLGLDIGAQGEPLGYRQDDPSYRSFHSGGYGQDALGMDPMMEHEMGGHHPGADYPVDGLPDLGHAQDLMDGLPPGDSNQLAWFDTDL
Test: cell-based or functional assay
Starred links: 1 amine or outer side, 2 acyl side, 3 side chain; linkers in the order of their positions; H or OH if unused. Positions of bridges follow the written chain, without caps; N, C: chain ends. Non-standard residues stand in square brackets, D forms with d. Primed or numbered codes have the meaning given here. (Me2NPrPip)GlnR = (S)-2-amino-5-(4-(3-(dimethylamino)propyl)piperazin-1-yl)-5-oxopentanoic acid, CN(C)CCCN1CCN(C(=O)CC[C@H](N[*:1])C(=O)[*:2])CC1; PyrS2″ = (S)-3-amino-1-((pent-4-en-1-yloxy)carbonyl)pyrrolidine-3-carboxylic acid (stapling residue), C=CCCCOC(=O)N1CC[C@@](N[*:1])(C(=O)[*:2])C1; (RDMAPyr)GlnR = (S)-2-amino-5-((R)-3-(dimethylamino)pyrrolidin-1-yl)-5-oxopentanoic acid, CN(C)[C@@H]1CCN(C(=O)CC[C@H](N[*:1])C(=O)[*:2])C1; B5(4) = 2,2-bis(4-pentenyl)glycine = 2-amino-2-(pent-4-en-1-yl)hept-6-enoic acid (stitching residue), C=CCCCC(CCCC=C)(N[*:1])C(=O)[*:2]; TfeGA = (S)-2-amino-3-((carboxymethyl)(2,2,2-trifluoroethyl)amino)propanoic acid, O=C([C@H](CN(CC(=O)[*:3])CC(F)(F)F)N[*:1])[*:2]; B5(19) = 2-amino-2-(pent-4-en-1-yl)hept-6-enoic acid (bis(4-pentenyl)glycine), C=CCCCC(CCCC=C)(N[*:1])C(=O)[*:2]; Bta = N[C@@H](Cc1csc2ccccc12)C(=O)O; αAllylPro = C=CC[C@@]1(C(=O)O)CCCN1; tBuAla = CC(C)(C)C[C@H](N)C(=O)O; 3Thi = N[C@@H](Cc1ccsc1)C(=O)O; TfeGA″ = not defined here
Give the value, in units of µM, as a plain number.

Answered cases to consult:
Ac-[αAllylPro]D[tBuAla][B5(4)]D[TfeGA″]AAF[(NHBn)GlnR][PyrS2″][3Thi][Bta]Q-NH2 (staple 1-4, 4-11; reading uncertain) [I-1942] | 7.9
Ac-[αAllylPro]D[tBuAla][B5(19)]D[TfeGA]AAF[(RDMAPyr)GlnR][PyrS2″][3Thi][Bta]Q-NH2 (staple 1-4, 4-11) [I-1939] | 20.7

Ask | Entry Ac-[αAllylPro]D[tBuAla][B5(19)]D[TfeGA]AAF[(Me2NPrPip)GlnR][PyrS2″][3Thi][Bta]Q-NH2 (staple 1-4, 4-11) [I-1936] : reported NanoBRET Abs IC50 = ?
Reply | 15.7
